Data origin, for the record: patent US20250270315A1

# MEASURED ON: T1, human SIRPα v1 ECD recombinant protein (tag not given) (human, UniProt P78324 31-373)
# T1 construct: extracellular domain; also called biotin labeled soluble human SIRPα v1 ECD recombinant protein; ELISA microplate coated human SIRPα v1 ECD
# ASSAY NAME: competitive ELISA, mFc-CD47 ECD on coated SIRPα v1 ECD
Documented IC50 across a set of binders
Reply numerically in nM, unit not repeated.

hu025.033 (antibody, V domains shown, Humanized 025) VH: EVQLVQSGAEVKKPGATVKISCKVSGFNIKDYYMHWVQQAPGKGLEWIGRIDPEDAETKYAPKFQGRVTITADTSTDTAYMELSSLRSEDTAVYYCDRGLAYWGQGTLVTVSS VL: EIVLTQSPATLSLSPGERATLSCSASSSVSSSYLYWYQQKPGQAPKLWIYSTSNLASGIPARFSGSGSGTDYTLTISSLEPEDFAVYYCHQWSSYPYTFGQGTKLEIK	2.22

Now consider the entry below.
Identify measured IC50 corresponding to 025c (antibody, V domains shown, also called chimeric antibody 025c; parental antibody of 025c) VH: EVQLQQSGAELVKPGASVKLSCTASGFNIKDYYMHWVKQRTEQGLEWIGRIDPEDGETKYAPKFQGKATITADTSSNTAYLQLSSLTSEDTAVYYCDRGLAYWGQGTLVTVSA VL: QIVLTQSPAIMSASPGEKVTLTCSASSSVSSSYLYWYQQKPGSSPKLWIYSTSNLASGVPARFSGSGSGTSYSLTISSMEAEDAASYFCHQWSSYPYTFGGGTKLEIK
2.03
